test system: TK-10 renal; assay: NCI tumour cell line growth inhibition, 48 h
Reported TGI values for a set of molecules

Bench note: what TGI did Cc1cn(CCOCCOC(=O)NC(CCCNC(N)=O)C(=O)O)c(=O)[nH]c1=O (stereo not given) show?
> 100 µM

Bench note: what TGI did COC(=O)c1ccc(C(=O)OC)c2nc3cc(C)ccc3nc12 show?
> 100 µM

Bench note: what TGI did Cc1nc(Nc2nc3ccccc3[nH]2)nc(Cl)c1CCCl show?
> 100 µM

Bench note: what TGI did C[PH+](c1nc2ccccc2nc1[PH+](C)C(C)(C)C)C(C)(C)C.C[PH+](c1nc2ccccc2nc1[PH+](C)C(C)(C)C)C(C)(C)C.[Au+].[Cl-] (stereo not given) show?
1.13 µM

Bench note: what TGI did CCN(CC)/[N+]([O-])=N/O show?
> 100 µM

---

tested on: OVCAR-3 ovarian; test: NCI tumour cell line growth inhibition, 48 h; in the data active = GI50 below about 0.43 µM; inactive = the rest
Entry note: the call must match one of label 1 (active), label 0 (inactive)

Solved cases below.
[[record]]
compound = "CS(=O)(=O)[O-].CS(=O)(=O)[O-].NC1CCCCC1N.[Pt+4] (stereo not drawn)"
label_class = "label 0"

[[record]]
compound = "CCN(CC)CCOc1c(OC)c(Br)cc2c(C)c(C(=O)OC)oc12"
label_class = "label 0"

[[record]]
compound = "O=C(Nc1ccc(Br)cc1)Nc1nn(C(=O)Nc2ccc(Br)cc2)c2ccccc12"
label_class = "label 0"

[[record]]
compound = "CC1(C)[C@@H](OC(N)=O)C=C[C@]2(CO)[C@H]3CC[C@]4(C)[C@@H](c5ccc(=O)oc5)[C@@H](Cl)C[C@]4(O)C3=CC[C@@H]12"
label_class = "label 1"

[[record]]
compound = "CCCCCCNC(=O)Oc1ccc(/C(=C(/C)Cc2ccc(OC)cc2)c2ccc(OCCN(C)C)cc2)cc1"
label_class = "label 0"

[[record]]
compound = "COc1cc(/C=C2\\CC3C4CC=C5C[C@@H](O)CC[C@]5(C)C4CC[C@]3(C)C2=O)ccc1OCCCn1ccnc1 (stereo partly drawn)"
label_class = "label 0"

[[record]]
compound = "COc1cc2c(c(OC)c1OC)-c1ccc(O)c(=O)cc1[C@@H](NC(C)=O)CC2"
label_class = "label 0"


So what was the verdict on CC(C)(C)n1cc(-c2ccnc(NCCCNS(=O)(=O)c3ccc(Br)cc3)c2)c(-c2cccc(O)c2)n1 in this test?
label 0

---

tested on: HCT-116 colon; experiment: NCI tumour cell line growth inhibition, 48 h; in the data active = GI50 below about 0.43 µM; inactive = the rest
Entry note: the call must match one of YES for active, NO for inactive

[[record]]
smiles_code = "C=C(C)[C@@H]1CC[C@]2(CO)CC[C@]3(C)[C@H](CC[C@@H]4[C@@](C)(CCCN)[C@H](C(=C)C)CC[C@]43C)[C@@H]12"
label_class = "NO"

[[record]]
smiles_code = "CC(C)(C)n1cc(-c2ccnc(NCCCNS(=O)(=O)c3ccc(Br)cc3)c2)c(-c2cccc(O)c2)n1"
label_class = "NO"

[[record]]
smiles_code = "CC(=O)c1cccc(-c2cccc(-c3ccn(CCN4CCOCC4)n3)c2)c1"
label_class = "NO"


So what was the verdict on COc1ccc(/C=C\c2cc(OC)c(OC)c(OC)c2)c(NS(=O)(=O)c2ccc(Cl)cc2)c1O in this test?
YES

So what was the verdict on CC1(C)[C@@H](OC(N)=O)C=C[C@]2(CO)[C@H]3CC[C@]4(C)[C@@H](c5ccc(=O)oc5)[C@@H](Cl)C[C@]4(O)C3=CC[C@@H]12 in this test?
YES

---

tested on: ACHN renal; assay: NCI tumour cell line growth inhibition, 48 h
measured.attribute: TGI (µM)
Quick reminder: number only, in µM, skip the unit.

Consider the worked cases shown below.
[[record]]
compound = "CCC[CH2][Sn]1([CH2]CCC)[O]C(=O)c2ccc(N)cc2[O]1"
unit_string = "µM"
endpoint_result = 1.92

[[record]]
compound = "C/C(=N\\NC(=S)N1CCN(c2ccccn2)CC1)c1nccs1"
unit_string = "µM"
endpoint_result = 9.96

[[record]]
compound = "COc1ccc2c(c1)C(=O)C1CCC(=O)N1C2c1ccc2c(c1)OCO2 (stereo unspecified)"
unit_string = "µM"
endpoint_result = 38.3

[[record]]
compound = "Oc1c(CN2CCCC2)cc(CSCc2ccccc2)c2cccnc12"
unit_string = "µM"
endpoint_result = 10.2


// moving on: another record for TGI
Bench note: what TGI did CCOC(=O)c1c2c(n(Cc3ccccc3)c1C)-c1nc(Cc3ccccc3)[nH]c1C(=O)C2=O show?
3

---

system: T-47D breast; test: NCI tumour cell line growth inhibition, 48 h
measured.attribute: GI50

Consider the worked cases shown below.
[[record]]
compound = "COc1cc(/C=C2\\CN(C(=O)CCN3CCC(=NO)CC3)C/C(=C\\c3cc(OC)c(OC)c(OC)c3)C2=O)cc(OC)c1OC"
endpoint_result = "803 nM"

[[record]]
compound = "CC(=O)c1cc(-c2ccccc2N)n(-c2ccc3c(c2)OCO3)c1C"
endpoint_result = "852 nM"

[[record]]
compound = "CC[C@H](Nc1nc(N)nc(C2CC2)c1C#N)c1nc2cccc(NCc3ccc(C(=O)NO)cc3)c2c(=O)n1-c1ccccc1"
endpoint_result = "1820 nM"

[[record]]
compound = "CCCCN(CC)c1ncnc2ccc(Br)cc12"
endpoint_result = "28900 nM"


// moving on: another record for GI50
Bench note: what GI50 did COc1cc(/C=C2\CC3C4CC=C5C[C@@H](O)CC[C@]5(C)C4CC[C@]3(C)C2=O)ccc1OCCCn1ccnc1 (stereo not given in full) show?
29300 nM

---

test system: NCI-H460 lung; assay: NCI tumour cell line growth inhibition, 48 h
measured.attribute: TGI

[[record]]
molecule = "CC1(C)[C@@H](OC(N)=O)C=C[C@]2(CO)[C@H]3CC[C@]4(C)[C@@H](c5ccc(=O)oc5)[C@@H](Cl)C[C@]4(O)C3=CC[C@@H]12"
endpoint_result = "0.00128 µM"

[[record]]
molecule = "Clc1ccc(-c2c(C3=NCCN3)nnn2-c2ccccc2)cc1"
endpoint_result = "> 100 µM"

[[record]]
molecule = "CC(=O)c1cccc(-c2cccc(-c3ccn(CCN4CCOCC4)n3)c2)c1"
endpoint_result = "> 20 µM"


// moving on: another record for TGI
Bench note: what TGI did CCCCCCCCCCCCCC(=O)NCC(OCC)OCC show?
> 100 µM

---

test system: M19-MEL melanoma; assay: NCI tumour cell line growth inhibition, 48 h
measured.attribute: TGI

[[record]]
molecule = "Nc1cc2[nH]cnc2c(=O)[nH]1"
endpoint_result = "> 300 µM"

[[record]]
molecule = "COC(=O)C(CC(=O)c1c[nH]c2ccccc12)c1c[nH]c2ccccc12 (stereo unspecified)"
endpoint_result = "> 10 µM"

[[record]]
molecule = "CCN(CC)/[N+]([O-])=N/O"
endpoint_result = "> 100 µM"

[[record]]
molecule = "C[C@]12CCC(=O)C=C1CC[C@@H]1[C@@H]2[C@@H](O)C[C@@]2(C)[C@H]1CC[C@]2(O)C(=O)COC(=O)CCC1CCCC1"
endpoint_result = "> 100 µM"


Form field - read-out: TGI; system: M19-MEL melanoma; submitted item: CCN(CC)CCCC(C)Nc1cc(-c2ccccc2)nc2cc(OC)ccc12 (stereo unspecified)
27.5 µM

Form field - read-out: TGI; system: M19-MEL melanoma; submitted item: Cc1c(C(=O)CC(=O)C(=O)Nc2cc(Cl)ccc2Cl)[n+](=O)c2ccccc2n1[O-]
59.1 µM

Form field - read-out: TGI; system: M19-MEL melanoma; submitted item: Cc1nc2c(n1-c1ccccc1)C(=O)c1ccccc1C2=O
40.4 µM

---

system: SNB-19 CNS; test: NCI tumour cell line growth inhibition, 48 h
measured.attribute: TGI

[[record]]
compound = "O=c1c2cc(Br)ccc2ncn1COCc1ccccc1"
test_system = "SNB-19 CNS"
endpoint_result = "> 100 µM"


Bench note: what TGI did COC(=O)[C@](C)(Cc1ccccc1)NC(=O)[C@@H](C)N1[C@@H](c2ccccc2)COC1(C)C show?
> 100 µM

Bench note: what TGI did O=C(Nc1ccc(Br)cc1)Nc1nn(C(=O)Nc2ccc(Br)cc2)c2ccccc12 show?
81 µM

Bench note: what TGI did CCOC(=O)C1=C(Nc2ccc(Cl)c(Cl)c2)OC/C1=N\NC(=O)Cc1ccccc1 show?
> 100 µM

Bench note: what TGI did CCOC(=O)c1c(N)sc2c1C(C(=O)OCC)CCC2 (stereo unspecified) show?
> 100 µM

Bench note: what TGI did COC(=O)c1cc(C)ccc1C1CN=NC12Cc1c(C)cc(C)cc1C2=O (stereo unspecified) show?
> 100 µM

Bench note: what TGI did CCCCN(CC)c1ncnc2ccc(Br)cc12 show?
> 100 µM

Bench note: what TGI did COc1cc(/C=C2\CN(C(=O)CCN3CCC(=NO)CC3)C/C(=C\c3cc(OC)c(OC)c(OC)c3)C2=O)cc(OC)c1OC show?
1.58 µM

Bench note: what TGI did CCCCCCCCCCCCCCCCCCNC(=O)OCC(CNS(=O)(=O)CCC[n+]1cccc2ccccc21)COC (stereo unspecified) show?
6.13 µM

Bench note: what TGI did COc1cc2c(cc1O)CCN(C)[C@H]2Cc1ccc(Oc2c(O)c(OC)cc3c2C[C@H]2c4c(c(OC)c(OC)c(OC)c4-3)CCN2C)cc1 show?
12.5 µM

Bench note: what TGI did CC[C@@]12C=CCN3CC[C@]4(c5cc(NC(=O)COc6cc(OCC(=O)Nc7cc8c(cc7OC)N(C)[C@H]7[C@@](O)(C(=O)OC)[C@H](OC(C)=O)[C@]9(CC)C=CCN%10CC[C@]87[C@@H]%109)cc7oc(-c8ccccc8)cc(=O)c67)c(OC)cc5N(C)[C@@H]4[C@](O)(C(=O)OC)[C@H]1OC(C)=O)[C@H]32 show?
> 100 µM
